# assay-system: acetylcholine receptor
# assay-summary: SPR, AchR immobilised, peptide 10 uM
measured-attribute: Binding affinity (RU)

INSERT INTO assay_data (binder, unit_abbrev, recorded_value) VALUES
  ('RKTKAK [6mer-1-1071]', 'RU', 38),
  ('KRYSMR [6mer-1-643]', 'RU', 31),
  ('RRKWGR [6mer-1-1077]', 'RU', 24);

[1] RKAEKR [6mer-1-602]
[2] KKCTPR [6mer-1-1072]
Request: Which of these two has the smaller recorded Binding affinity (RU): 1 or 2 ? When you have decided, please share the label of that item.
Result: 1
(1: 18 RU, 2: 36 RU)

[1] KRMSHK [6mer-1-1100]
[2] KKPPAK [6mer-1-624]
Request: // which entry reports the smaller Binding affinity (RU), 1 or 2 ? Lab log: write the label of the selected item as the result.
Result: 2

[I] KKTWWR [6mer-1-1121]
[II] RKDNIK [6mer-1-1131]
Request: Parameter check: reported Binding affinity (RU) is higher for which label, I or II ? Lab note: record the label of whichever item you select.
Result: II

[I] KKIWAR [6mer-1-1069]
[II] RKMMMK [6mer-1-1127]
Request: Compare reported Binding affinity (RU) values for I and II . Which is lower? Your answer should be the label attached to the chosen record.
Result: I
